Assayed Target: Probable G-protein coupled receptor 34 (Mus musculus, UniProt Q9R1K6)
Sequence (Q9R1K6 whole entry, the tested form may be a part): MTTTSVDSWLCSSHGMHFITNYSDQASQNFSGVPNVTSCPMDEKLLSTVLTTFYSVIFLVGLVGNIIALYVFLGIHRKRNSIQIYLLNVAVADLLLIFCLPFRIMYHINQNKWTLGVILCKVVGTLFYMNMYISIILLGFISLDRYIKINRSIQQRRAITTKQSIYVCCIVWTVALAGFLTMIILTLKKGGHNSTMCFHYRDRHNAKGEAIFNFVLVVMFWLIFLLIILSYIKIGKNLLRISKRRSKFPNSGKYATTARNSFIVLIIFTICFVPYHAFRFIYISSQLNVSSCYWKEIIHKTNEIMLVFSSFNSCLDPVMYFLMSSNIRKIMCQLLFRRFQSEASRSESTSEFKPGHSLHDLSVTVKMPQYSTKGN
Test Method Notes: Agonist activity at mouse GPR34 expressed in HEK293 cells co-transfected with AP-TGFalpha/Galphaq/i1 assessed as induction of ectodomain shedding of membrane bound AP-TGFalpha after 1 hr by p-NPP substrate based microplate reader analysis
Format: cell-based
Test Parameters: read-out: EC50
Measured Quantity: EC50 (µM)

> print(dat)
                               query.smiles  measured.quantity  measured
1  CCCCCCCC/C=C\CCCCCCCC(=O)OCCCCCOP(=O)(O)OC[C@H](N)C(=O)O               EC50      0.47
2  CCOC[C@H](COC(=O)CCc1ccccc1OCc1cccc(Oc2ccccc2)c1)OP(=O)(O)OC[C@H](N)C(=O)O               EC50     0.005

1 = COC[C@H](COC(=O)CCc1ccccc1OCc1cccc(Oc2ccccc2)c1)OP(=O)(O)OC[C@H](N)C(=O)O
2 = CCCCCCCC/C=C\CCCCCCCC(=O)OCCCOP(=O)(O)OC[C@H](N)C(=O)O
3 = N[C@@H](COP(=O)(O)OCCOC(=O)CCc1ccccc1OCc1cccc(Oc2ccccc2)c1)C(=O)O
### Prompt Which order do these items take when sorted by rising EC50? List them. Would you mind listing the labels in the order requested?
### Response 1, 3, 2

----------
Assayed Target: Putative P2Y purinoceptor 10 (Mus musculus) (UniProt Q8BFU7)
Sequence (Q8BFU7 whole entry, the tested form may be a part): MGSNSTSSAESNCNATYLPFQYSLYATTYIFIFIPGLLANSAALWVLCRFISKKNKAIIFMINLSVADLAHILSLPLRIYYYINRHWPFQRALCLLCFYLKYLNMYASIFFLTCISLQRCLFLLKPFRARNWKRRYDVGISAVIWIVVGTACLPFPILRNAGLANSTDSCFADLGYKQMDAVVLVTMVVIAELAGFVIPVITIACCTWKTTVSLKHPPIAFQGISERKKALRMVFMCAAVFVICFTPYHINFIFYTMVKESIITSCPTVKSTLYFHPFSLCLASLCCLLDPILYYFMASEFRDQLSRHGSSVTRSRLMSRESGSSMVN
Test Method Notes: Agonist activity at mouse P2Y10 expressed in HEK293 cells co-transfected with AP-TGFalpha/Galphaq/i1 assessed as induction of ectodomain shedding of membrane bound AP-TGFalpha after 1 hr by p-NPP substrate based microplate reader analysis relative to control
Type: cell-based
Measured Quantity: Emax (%)

> print(dat)
                                   molecule  units.label  measured
1  CCCCCCCCCCCOc1ccccc1CCC(=O)O[C@@H]1CCOC[C@H]1OP(=O)(O)OC[C@H](N)C(=O)O            %      10.6
2  CCCCCCCC/C=C\CCCCCCCC(=O)OCCCOP(=O)(O)OC[C@H](N)C(=O)O            %      13.7
3  C[C@H](COP(=O)(O)OC[C@H](N)C(=O)O)OC(=O)CCc1ccccc1OCc1cccc(Oc2ccccc2)c1            %      13.8
4  CCCCCCCCCCCOc1ccccc1CCC(=O)OC1COCC[C@H]1OP(=O)(O)OC[C@H](N)C(=O)O (single isomer, unassigned)            %      11.4
5  CCCCCCCC/C=C\CCCCCCCC(=O)OC[C@@H](C)OP(=O)(O)OC[C@H](N)C(=O)O            %      12.4

----------
Assayed Target: Putative P2Y purinoceptor 10 (Mus musculus)
Test Method Notes: Agonist activity at mouse P2Y10 expressed in HEK293 cells co-transfected with AP-TGFalpha/Galphaq/i1 assessed as induction of ectodomain shedding of membrane bound AP-TGFalpha after 1 hr by p-NPP substrate based microplate reader analysis relative to control
Type: cell-based
This section presents compounds with their documented Emax values.

> print(dat)
                               query.smiles  measured.quantity  measured
1  C#CCOC[C@H](COC(=O)CCCCCCC/C=C\CCCCCCCC)OP(=O)(O)OC[C@H](N)C(=O)O               Emax      3.2%
2  CCCCCCCC/C=C\CCCCCCCC(=O)O[C@H](C)COP(=O)(O)OC[C@H](N)C(=O)O               Emax     11.4%
3  CCCCCCCC/C=C\CCCCCCCC(=O)OCCCCOP(=O)(O)OC[C@H](N)C(=O)O               Emax     13.1%
4  CCCCCCCC/C=C\CCCCCCCC(=O)OCCCCCOP(=O)(O)OC[C@H](N)C(=O)O               Emax     10.8%

### Prompt State, in one line, measured Emax of CCCCCCCC/C=C\CCCCCCCC(=O)O[C@H](COC)COP(=O)(O)OC[C@H](N)C(=O)O
### Response 2.5%

### Prompt State, in one line, measured Emax of CCCCCCCCCCCOc1ccccc1CCC(=O)O[C@H]1CCOC[C@H]1OP(=O)(O)OC[C@H](N)C(=O)O
### Response 3.2%

### Prompt State, in one line, measured Emax of C[C@H](COC(=O)CCc1ccccc1OCc1cccc(Oc2ccccc2)c1)OP(=O)(O)OC[C@H](N)C(=O)O
### Response 13.2%

----------
Assayed Target: Probable G-protein coupled receptor 34 (Mus musculus) (UniProt Q9R1K6)
Test Method Notes: Agonist activity at mouse GPR34 expressed in HEK293 cells co-transfected with AP-TGFalpha/Galphaq/i1 assessed as induction of ectodomain shedding of membrane bound AP-TGFalpha after 1 hr by p-NPP substrate based microplate reader analysis relative to control
Format: cell-based
This section presents molecules with their documented Emax values.

Consider the worked cases shown below.
> print(dat)
                                   molecule                            assayed.target  measured
1  CCCCCCCC/C=C\CCCCCCCC(=O)OCCCOP(=O)(O)OC[C@H](N)C(=O)O  Probable G-protein coupled receptor 34 (Mus musculus) (UniProt Q9R1K6)      6.2%
2  C[C@H](COC(=O)CCc1ccccc1OCc1cccc(Oc2ccccc2)c1)OP(=O)(O)OC[C@H](N)C(=O)O  Probable G-protein coupled receptor 34 (Mus musculus) (UniProt Q9R1K6)     12.4%
3  CCCCCCCCCCCOc1ccccc1CCC(=O)O[C@@H]1CCOC[C@@H]1OP(=O)(O)OC[C@H](N)C(=O)O  Probable G-protein coupled receptor 34 (Mus musculus) (UniProt Q9R1K6)      8.9%
4  CCCCCCCC/C=C\CCCCCCCC(=O)OC[C@@H](COC)OP(=O)(O)OC[C@H](N)C(=O)O  Probable G-protein coupled receptor 34 (Mus musculus) (UniProt Q9R1K6)     12.9%
5  CCCCCCCC/C=C\CCCCCCCC(=O)OC[C@@H](COCc1ccccc1)OP(=O)(O)OC[C@H](N)C(=O)O  Probable G-protein coupled receptor 34 (Mus musculus) (UniProt Q9R1K6)      9.6%

### Prompt State, in one line, measured Emax of CCCCCCCCCCCOc1ccccc1CCC(=O)O[C@@H]1CCOC[C@H]1OP(=O)(O)OC[C@H](N)C(=O)O
### Response 10.3%

### Prompt State, in one line, measured Emax of CCCCCCCCCCCOc1ccccc1CCC(=O)OC1COCC[C@H]1OP(=O)(O)OC[C@H](N)C(=O)O (single isomer, unassigned)
### Response 10%

----------
Assayed Target: Probable G-protein coupled receptor 34 (Mus musculus) (UniProt Q9R1K6)
Test Method Notes: Agonist activity at mouse GPR34 expressed in HEK293 cells co-transfected with AP-TGFalpha/Galphaq/i1 assessed as induction of ectodomain shedding of membrane bound AP-TGFalpha after 1 hr by p-NPP substrate based microplate reader analysis relative to control
Type: cell-based
Measured Quantity: Emax

Consider the worked cases shown below.
> print(dat)
                                   compound  measured.quantity  measured
1  CCCCCCCC/C=C\CCCCCCCC(=O)OC[C@H](C)OP(=O)(O)OC[C@H](N)C(=O)O               Emax     11.2%
2  CCCCCCCC/C=C\CCCCCCCC(=O)OC[C@@H](COCC)OP(=O)(O)OC[C@H](N)C(=O)O               Emax     12.3%
3  CCCCCCCCCCCOc1ccccc1CCC(=O)OC1COCCC1OP(=O)(O)OC[C@H](N)C(=O)O (single isomer, unassigned)               Emax      3.7%
4  CCCCCCCCCCCOc1ccccc1CCC(=O)OCCOP(=O)(O)OC[C@H](N)C(=O)O               Emax      4.8%

### Prompt State, in one line, measured Emax of CCCCCCCC/C=C\CCCCCCCC(=O)O[C@H](C)COP(=O)(O)OC[C@H](N)C(=O)O
### Response 6.1%

### Prompt State, in one line, measured Emax of CCCCCCCC/C=C\CCCCCCCC(=O)O[C@H](COC)COP(=O)(O)OC[C@H](N)C(=O)O
### Response 9.7%

### Prompt State, in one line, measured Emax of COC[C@H](COC(=O)CCc1ccccc1OCc1cccc(Oc2ccccc2)c1)OP(=O)(O)OC[C@H](N)C(=O)O
### Response 13.5%

----------
Assayed Target: Probable G-protein coupled receptor 34 (Mus musculus) (UniProt Q9R1K6)
Test Method Notes: Agonist activity at mouse GPR34 expressed in HEK293 cells co-transfected with AP-TGFalpha/Galphaq/i1 assessed as induction of ectodomain shedding of membrane bound AP-TGFalpha after 1 hr by p-NPP substrate based microplate reader analysis relative to positive control
Type: cell-based
Test Parameters: filed as agonist
Measured Quantity: fold change (FC)

1 = CCCCCCCC/C=C\CCCCCCCC(=O)OCCCOP(=O)(O)OC[C@H](N)C(=O)O
2 = C#CCOC[C@H](COC(=O)CCCCCCC/C=C\CCCCCCCC)OP(=O)(O)OC[C@H](N)C(=O)O
### Prompt Could you tell me which of 1 and 2 has the lower fold change (FC) reading? Field: selected label. Fill in the label of the entry you choose.
### Response 1

A = CCCCCCCC/C=C\CCCCCCCC(=O)OCCCCOP(=O)(O)OC[C@H](N)C(=O)O
B = CCCCCCCCCCCOc1ccccc1CCC(=O)OC1COCC[C@H]1OP(=O)(O)OC[C@H](N)C(=O)O (single isomer, unassigned)
### Prompt For this pair, A and B , which shows a numerically higher fold change (FC)? Field: selected label. Fill in the label of the entry you choose.
### Response B

1 = CCCCCCCC/C=C\CCCCCCCC(=O)OC[C@@H](COCc1ccccc1)OP(=O)(O)OC[C@H](N)C(=O)O
2 = N[C@@H](COP(=O)(O)OCCOC(=O)CCc1ccccc1OCc1cccc(Oc2ccccc2)c1)C(=O)O
### Prompt Could you tell me which of 1 and 2 has the lower fold change (FC) reading? Field: selected label. Fill in the label of the entry you choose.
### Response 1

# credit: ChEMBL document CHEMBL4725358
